- TEST SYSTEM: Cytoplasmic tyrosine-protein kinase BMX (Homo sapiens)
- Sequence (P51813 whole entry, the tested form may be a part): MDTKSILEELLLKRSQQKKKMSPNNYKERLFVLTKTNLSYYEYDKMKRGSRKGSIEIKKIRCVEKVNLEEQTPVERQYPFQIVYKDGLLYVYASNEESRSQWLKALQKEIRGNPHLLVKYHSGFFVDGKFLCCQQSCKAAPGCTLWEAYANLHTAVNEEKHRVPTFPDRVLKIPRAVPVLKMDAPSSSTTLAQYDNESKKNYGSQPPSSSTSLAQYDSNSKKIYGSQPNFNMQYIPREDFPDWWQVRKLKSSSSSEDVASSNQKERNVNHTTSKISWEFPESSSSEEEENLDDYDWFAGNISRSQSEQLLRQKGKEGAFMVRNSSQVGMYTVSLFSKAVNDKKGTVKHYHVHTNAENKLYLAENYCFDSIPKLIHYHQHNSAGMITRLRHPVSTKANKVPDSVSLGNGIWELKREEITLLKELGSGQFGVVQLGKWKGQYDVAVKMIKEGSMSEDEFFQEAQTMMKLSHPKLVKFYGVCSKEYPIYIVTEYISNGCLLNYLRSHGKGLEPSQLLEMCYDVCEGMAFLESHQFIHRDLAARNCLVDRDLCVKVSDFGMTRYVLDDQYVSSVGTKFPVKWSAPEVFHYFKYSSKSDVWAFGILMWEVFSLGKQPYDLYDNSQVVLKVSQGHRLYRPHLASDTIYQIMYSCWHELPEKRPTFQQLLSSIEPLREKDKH
- METHOD DESCRIPTION: Inhibition of recombinant full length His-tagged human BMX cytoplasmic domain expressed in baculovirus expression system by Z'-Lyte assay
pIC50: −log10 of the molar value.
OBSERVED PROPERTY: pIC50

>>> measured_value("Cc1ccc(-n2c(=O)ccc3ccc4ccc(-c5cnn(C)c5)cc4c32)cc1NC(=O)/C=C/CN(C)C")
5.62

----------
- METHOD DESCRIPTION: Cytotoxicity against human HuH7 cells measured after 24 hrs by CellTiter-Glo luminescent cell viability assay
- Format: cell-based, Huh-7
Labelling: CC50 at 24 h reported below 80 µM becomes yes (1); at or above becomes no (0).

>>> assigned_class("C=CC(=O)Nc1cc(-n2c(=O)ccc3ccc4ccc(-c5cnn(C)c5)cc4c32)ccc1C")
"no (0)"
>>> assigned_class("C=CC(=O)Nc1cc(-n2c(=O)ccc3cnc4ccc(N5CCOCC5)cc4c32)ccc1C")
"no (0)"
>>> assigned_class("C=CC(=O)Nc1cc(-n2c(=O)ccc3cnc4ccc(-c5ccc6c(c5)OCO6)cc4c32)ccc1C")
"yes (1)"
>>> assigned_class("C=CC(=O)Nc1cc(-n2c3c(ccc2=O)CCc2ccc(-c4ccc5ccncc5c4)cc2-3)ccc1C")
"no (0)"
>>> assigned_class("Cc1ccc(-n2c(=O)ccc3ccc4ccc(-c5ccc6ccncc6c5)cc4c32)cc1NC(=O)/C=C/CN(C)C")
"yes (1)"
>>> assigned_class("C=CC(=O)Nc1cc(-n2c(=O)ccc3cnc4ccc(-c5cnn(C)c5)cc4c32)ccc1OCCNC(C)=O")
"no (0)"
>>> assigned_class("C=CC(=O)Nc1cc(-n2c(=O)ccc3ccc4ccc(-c5cn[nH]c5)cc4c32)ccc1C")
"yes (1)"
>>> assigned_class("C=CC(=O)Nc1cc(-n2c(=O)ccc3cnc4ccc(-c5cn[nH]c5)cc4c32)ccc1C")
"yes (1)"
>>> assigned_class("C=CC(=O)Nc1cc(-n2c(=O)ccc3cnc4ccc(-c5cnn(C)c5)cc4c32)ccc1F")
"no (0)"
>>> assigned_class("C=CC(=O)N1CCc2ccc(-n3c(=O)ccc4cnc5ccc(-c6ccc(S(=O)(=O)NC(C)(C)C)cc6)cc5c43)cc21")
"yes (1)"
>>> assigned_class("C=CC(=O)Nc1cc(-n2c3c(ccc2=O)CCc2ccc(-c4cnn(C)c4)cc2-3)ccc1C")
"no (0)"
>>> assigned_class("C=CC(=O)Nc1cc(-n2c(=O)ccc3cnc4ccc(-c5ccc(N)nc5)cc4c32)ccc1C")
"yes (1)"
>>> assigned_class("C=CC(=O)Nc1cc(-n2c(=O)ccc3ccc4ccc(-c5ccc6ccncc6c5)cc4c32)ccc1C")
"yes (1)"
>>> assigned_class("C=CC(=O)Nc1cc(-n2c(=O)ccc3cnc4ccc(-c5cnc6ccccc6c5)cc4c32)ccc1C")
"no (0)"
>>> assigned_class("C=CC(=O)Nc1cc(-n2c(=O)ccc3cnc4ccc(-c5cnn(C)c5)cc4c32)ccc1C(=O)O")
"no (0)"

----------
Recorded CC50 at 24 h for the following molecules
- METHOD DESCRIPTION: Cytotoxicity against human HuH7 cells measured after 24 hrs by CellTiter-Glo luminescent cell viability assay
- Type: cell-based, Huh-7
OBSERVED PROPERTY: CC50 at 24 h

>>> measured_value("C=CC(=O)N1CCc2ccc(N3C(=O)NCc4cnc5ccc(-c6cnn(C)c6)cc5c43)cc21")
"68 µM"
>>> measured_value("Cc1ccc(-n2c(=O)ccc3ccc4ccc(-c5cnn(C)c5)cc4c32)cc1NC(=O)/C=C/CN(C)C")
"12 to 20 µM"
>>> measured_value("C=CC(=O)Nc1cc(-n2c(=O)ccc3cnc4ccc(N5CCN(c6ccccc6)CC5)cc4c32)ccc1C")
"44 µM"
>>> measured_value("C=CC(=O)N1CCc2ccc(-n3c(=O)n(C)c4cnc5ccc(-c6ccc7ccncc7c6)cc5c43)cc21")
"126 µM"
>>> measured_value("C=CC(=O)Nc1cc(-n2c(=O)ccc3cnc4ccc(-c5cnn(C)c5)cc4c32)ccc1C(=O)N(C)C")
"83 µM"
>>> measured_value("C=CC(=O)Nc1cc(-n2c(=O)ccc3cnc4ccc(Nc5cnn(C)c5)cc4c32)ccc1C")
"107 µM"
>>> measured_value("C=CC(=O)Nc1cc(-n2c(=O)ccc3cnc4ccc(-c5cnn(C)c5)cc4c32)ccc1C")
"> 160 µM"
>>> measured_value("C=CC(=O)N1CCc2ccc(-n3c(=O)n(C)c4cnc5ccc(-c6cnn(C)c6)cc5c43)cc21")
"79 µM"
